The measured values listed here are drawn from ChEMBL document CHEMBL4190402.

# EXPERIMENTAL TARGET: Parathyroid hormone/parathyroid hormone-related peptide receptor (Homo sapiens, UniProt Q03431)
# Sequence (Q03431 whole entry): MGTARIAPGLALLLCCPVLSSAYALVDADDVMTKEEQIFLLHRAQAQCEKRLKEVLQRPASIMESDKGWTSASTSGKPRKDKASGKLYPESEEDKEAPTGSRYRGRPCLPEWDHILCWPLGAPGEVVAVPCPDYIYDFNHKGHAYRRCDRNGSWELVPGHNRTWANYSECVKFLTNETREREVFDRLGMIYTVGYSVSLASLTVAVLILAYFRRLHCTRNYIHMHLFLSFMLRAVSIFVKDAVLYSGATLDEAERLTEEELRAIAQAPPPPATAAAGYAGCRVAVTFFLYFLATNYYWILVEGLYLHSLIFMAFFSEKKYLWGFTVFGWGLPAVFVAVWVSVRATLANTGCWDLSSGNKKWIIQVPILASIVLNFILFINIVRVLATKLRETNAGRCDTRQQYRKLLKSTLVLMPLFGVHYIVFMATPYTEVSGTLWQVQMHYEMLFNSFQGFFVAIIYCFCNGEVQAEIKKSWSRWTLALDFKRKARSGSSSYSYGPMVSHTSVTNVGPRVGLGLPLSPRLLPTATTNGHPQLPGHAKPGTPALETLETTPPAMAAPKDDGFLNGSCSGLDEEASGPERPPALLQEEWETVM
# TEST: Agonist activity at human PTHR1 expressed in HKRKB7 cells assessed as accumulation of intracellular cAMP after 20 mins by enzyme immunoassay
# Format: functional, cell-based
QUANTITY KIND: EC50

compound_string=Cc1cc(N2CCNC2=O)cc(C)c1CCS(=O)(=O)N1CCC2(CC1)N=C(C1CCCCC1)NC2=O quantity_kind=EC50 meas_value="> 1000 µM"
compound_string=O=C1NC(c2ccc(Cl)cc2Cl)=NC12CCN(S(=O)(=O)c1cccc(Cl)c1)CC2 quantity_kind=EC50 meas_value="> 1000 µM"
compound_string=Cc1ccccc1CCS(=O)(=O)N1CCC2(CC1)N=C(C1CCCCC1)NC2=O quantity_kind=EC50 meas_value="> 1000 µM"
